- ASSAY_SYSTEM: recombinant homotrimeric HA, A/Japan/305/57 H2N2 (Influenza A virus A/Japan/305/57 (H2N2))
- RUN_DESCRIPTION: trimeric HA microarray, transfection set 4
- ASSAY_CONTEXT: remark: other sources report otherwise
# Trimeric HA Binding RLU values compiled below
Numbers only here, please. The scale is RLU.

BINDER | REPORTED_METRIC | RECORDED_VALUE
TCN-523 (5248_A17) (antibody, V domains shown) VH: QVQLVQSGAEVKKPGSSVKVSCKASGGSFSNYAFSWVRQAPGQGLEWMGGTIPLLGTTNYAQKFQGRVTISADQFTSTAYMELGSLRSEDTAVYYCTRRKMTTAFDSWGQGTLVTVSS VL: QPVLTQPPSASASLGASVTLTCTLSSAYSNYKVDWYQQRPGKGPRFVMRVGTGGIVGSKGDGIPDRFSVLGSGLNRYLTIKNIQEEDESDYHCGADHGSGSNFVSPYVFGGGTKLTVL | Trimeric HA Binding RLU | 3840

Query string: Which measured Trimeric HA Binding RLU value corresponds to TCN-504 (3251_K17) (antibody, V domains shown) VH: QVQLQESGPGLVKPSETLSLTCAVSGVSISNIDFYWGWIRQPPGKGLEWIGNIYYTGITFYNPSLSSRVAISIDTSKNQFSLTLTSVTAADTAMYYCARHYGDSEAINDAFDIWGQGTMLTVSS VL: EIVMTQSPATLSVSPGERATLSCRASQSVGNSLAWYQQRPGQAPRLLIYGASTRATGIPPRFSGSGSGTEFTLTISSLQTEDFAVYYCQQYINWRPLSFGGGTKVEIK ?
Result string: 19600

Query string: Which measured Trimeric HA Binding RLU value corresponds to TCN-534 (5249_B02) (antibody, V domains shown) VH: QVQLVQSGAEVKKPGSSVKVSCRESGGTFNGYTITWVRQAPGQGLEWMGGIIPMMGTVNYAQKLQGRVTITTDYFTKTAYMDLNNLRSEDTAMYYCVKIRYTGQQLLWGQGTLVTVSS VL: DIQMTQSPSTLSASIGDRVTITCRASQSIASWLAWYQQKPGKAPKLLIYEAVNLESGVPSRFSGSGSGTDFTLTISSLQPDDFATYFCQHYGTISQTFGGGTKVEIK ?
Result string: 14700

Query string: Which measured Trimeric HA Binding RLU value corresponds to TCN-536 (5095_N01) (antibody, V domains shown) VH: QVQLQQWGAGLLKPSETLSLTCAVYGGSFSVSGYYWSWIRQPPGRGLEWIGEISHGGSTNYNPSLKSRVTISVDTTKNQFSLRLSSVTAADTAVYYCARGTDPDTEVYCRVGNCAAFDYWGQGSLVTVSS VL: EIILAQSPGTLSLSPGERATLSCRASQFVSTRSLAWYQQRPGQAPRLLIYGASSRATGIPDRFSGSGSGTDFTLTISRLEPEDFAVYYCQHYGYSPRYAFGQGSKVEIK ?
Result string: 260

Query string: Which measured Trimeric HA Binding RLU value corresponds to TCN-535 (5246_P19) (antibody, V domains shown) VH: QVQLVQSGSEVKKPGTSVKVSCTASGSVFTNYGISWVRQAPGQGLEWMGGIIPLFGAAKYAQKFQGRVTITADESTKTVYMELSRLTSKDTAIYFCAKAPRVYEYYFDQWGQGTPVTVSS VL: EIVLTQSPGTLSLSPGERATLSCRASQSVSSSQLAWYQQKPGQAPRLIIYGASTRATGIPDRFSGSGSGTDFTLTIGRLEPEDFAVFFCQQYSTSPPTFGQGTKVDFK ?
Result string: 21500

// data source = patent US20120207760A1
